These measurements were taken from PubChem BioAssay (NCI).

System: SF-295 CNS
Experiment: NCI tumour cell line growth inhibition, 48 h
Provide the recorded TGI for the entries that follow.

For orientation, consider the following solved cases.
COC(=O)[C@H]1C2CC[C@@H]3C45C[C@@H](c6ccoc6)O[C@@H]4O[C@@H](O2)C31CCC5C (stereo not given in full) ... > 100 µM
O=C1/C(=C\c2cccc(Oc3ccccc3)c2)SC(c2ccccc2)N1Cc1ccccc1 (stereo not given) ... > 100 µM
COc1ccc2c3c1OC1C4(CCC5C(C2)N(CC2CC2)CCC351)OCCO4 (stereo not given) ... > 100 µM
O=C(/C=C/c1ccc(O)c(O)c1)O[C@H]1CCCC[C@@H]1OC(=O)/C=C/c1ccc(O)c(O)c1 ... 33.3 µM
Cn1c(=S)c2[nH]c(SCc3cccnc3)nc2n(C)c1=O ... > 100 µM
O=CCC(O)C(O)C(O)CO (stereo not given) ... > 100 µM
CC1=C(C(=O)NCc2ccccc2)C(c2ccc(N(C)C)cc2)C(C(=O)NCc2ccccc2)=C(C)N1 ... > 100 µM
COc1ccc(/C=C2/C(=O)N(/C=C3\C(=O)Oc4ccccc4C3=O)C(=NC(C)=O)N2C)cc1OC ... > 100 µM
O=C(/C=C/c1cc(O)ccc1O)c1ccc(Cl)cc1 ... > 100 µM
CCOC(=O)c1nc2ccc(C(F)(F)F)cc2nc1NCc1ccc(F)cc1 ... > 100 µM

Please state, for each entry, its recorded TGI.
1. O=c1oc2ccccc2c(O)c1Cc1ccccc1Cc1c(O)c2ccccc2oc1=O
2. COc1ccccc1CNC(=O)/C=C/c1ccc(O)c(O)c1
3. COc1cc(NC(=O)c2cc3ccccc3cc2O)c(OC)cc1Cl
4. CN1CCC(n2cnc(-c3ccc(F)cc3)c2-c2ccnc(Nc3ccccc3)n2)CC1
5. CCN(CC)CCOc1ccccc1-n1c(C)ccc1-c1ccccc1
6. CC(C)(C)c1cc(C#N)c2c(c1)C(=O)OC2(c1ccccc1)c1ccccc1C#N (stereo not given)
7. O=C(NN1CCCCC1)c1cc2cc(CCl)ccc2oc1=O

> 100 µM
> 100 µM
4.54 µM
> 25 µM
34.2 µM
> 100 µM
42 µM

----------
Test system: SN12C renal
Assay: NCI tumour cell line growth inhibition, 48 h
So I've got a bunch of compounds here, and I need their TGI values.

Examples from the recorded data:
CCSc1nc(N)c(C#N)c(-c2ccc(OC)c(OC)c2)c1C#N ... > 50 µM
O=C(Oc1c(Cl)c(Cl)c(Cl)c(Cl)c1Cl)C1CCCN1C(=O)OCc1ccccc1 (configuration not stated) ... 12.5 µM
COc1ccc(C(=O)c2cc(C)c(OC)c(C)c2)c(OC)c1OC(=O)C(Cl)Cl ... > 100 µM
CC(O)/C=C/C1OC(=O)CC1Nc1ccc(C=O)cc1 (configuration not stated) ... > 100 µM
COc1ccccc1NC(=O)C1=C(C)NC(C)=C(C(=O)Nc2ccccc2OC)C1c1ccc(C2C(C(=O)Nc3ccccc3OC)=C(C)NC(C)=C2C(=O)Nc2ccccc2OC)cc1 ... 3.69 µM
OCCCN=C1N=C(Cl)/C(=C\c2ccccc2)N1 ... > 100 µM

// for each compound in input: emit TGI
1. CCC1=NC(N/N=C/c2ccco2)=N/C1=C\c1ccco1
2. CC(C)(C)COS(=O)OCC(C)(C)C
3. CNc1ccc(Cl)cc1C(=O)N1CCC[C@H]1CO
4. CC(C)C(=O)/C=C/c1ccc(Cl)cc1Cl
5. Cc1c2ccccc2cc2cccc[n+]12
6. C=CC(=O)OCCCS(=O)(=O)[O-].C=CC(=O)OCCCS(=O)(=O)[O-].NC1CCCCC1N.[Pt+4]

> 100 µM
> 100 µM
> 100 µM
23 µM
> 100 µM
> 25 µM

Give measured TGI for every item shown.
1. CC(=S)NC=C(C(N)=O)C(N)=O
2. COc1cccc(C=C(C#N)C#N)c1OC
3. CCOC(=O)/C=C(/C(=O)OCC)n1cc(C)c(=O)[nH]c1=O

1: > 100 µM; 2: > 100 µM; 3: 12.3 µM

Dear colleague, could you please provide TGI for the compounds listed below?
1. CC1(C)OC2C(O1)[C@H]1OC(C(Cl)(Cl)Cl)=N[C@H]1C(I)[C@H]2N1C(=O)c2ccccc2C1=O (some centres not stated)
2. CC(C)C1COC(C(C)(C)C2=N[C@@H](C(C)C)CO2)=N1 (some centres not stated)

["> 100 µM", "> 100 µM"]

For each of the compounds below, state TGI.
1. NC(=O)/C=C/c1c[nH]c2nccnc12
2. C=CC(=O)N1CCC(CNc2ncnc(N)c2-c2ccc(Oc3ccccc3)cc2)CC1

1. 11.4 µM
2. > 100 µM
